These data points were gathered from PubChem BioAssay (EPA / NIEHS).

# method_summary: ATG_CRE_CIS: Attagene CIS-FACTORIAL HepG2 Assay for human cAMP Responsive Element (CRE) binding protein 3 (AID 2282926)
# recorded_conditions: HepG2 CRE cis-reporter, Attagene multiplexed mRNA; actives raise or lower the signal
The source made the active and inactive calls. Rule for the calls: active = hit-call score of the fitted dose curve at least 0.9, where 1 is the maximum; inactive = score below 0.9.
Could you please pick one outcome from this set? active, inactive

Below are worked cases with known answers.
- smiles_structure: "O=c1[nH]sc2ccccc12"
  label_value: "active"
- smiles_structure: "c1ccc(C[n+]2cccc3ccccc32)cc1"
  label_value: "inactive"
- smiles_structure: "O=CCCCC=O"
  label_value: "inactive"
- smiles_structure: "CC[C@@H]1C[C@H](N(Cc2cc(C(F)(F)F)cc(C(F)(F)F)c2)C(C)=O)c2cc(C(F)(F)F)ccc2N1C(=O)OC(C)C"
  label_value: "inactive"
- smiles_structure: "CN1C(=O)CC[C@H]1c1cccnc1"
  label_value: "inactive"

### Prompt So what was the verdict on CC(C)(O)c1ccc(CNC(=O)c2cccnc2Oc2ccc3nonc3c2)cc1 in this test?
### Response inactive

### Prompt So what was the verdict on Clc1cc(Cl)c2c(c1)N=C1CCCCCN1C2 in this test?
### Response inactive
